test system: RXF-631 renal; assay: NCI tumour cell line growth inhibition, 48 h
measurement.type: TGI

Data request: // query TGI value for entry CC(=O)OC1C(COC(N)=O)OC(n2c(-c3ccc(C)cc3)cc(-c3ccccc3)c(C#N)c2=O)C(OC(C)=O)C1OC(C)=O (stereo not given)
Data returned: > 100 µM

Data request: Another compound: CCCCN(CCCC)C(=O)C(=O)C(C(=O)C(=O)OC)c1nc2ccccc2o1 (stereo not given)
Data returned: > 100 µM

Data request: Another compound: "COc1cc(/C=C(\C)c2ccc3c(c2)OCO3)cc(OC)c1OC"
Data returned: > 100 µM

Data request: Another compound: "CC[C@@]1(O)C(=O)OCc2c1cc1n(c2=O)Cc2cc3c(OC)cccc3nc2-1"
Data returned: 1.45 µM

Data request: Another compound: Cc1ccccc1C(C#N)/C(=N/NC(N)=S)C(=O)Nc1c(C)cccc1C (stereo not given)
Data returned: > 100 µM

Data request: Another compound: Cc1ccc(S(=O)OC2c3ccccc3Cc3ccccc32)cc1 (stereo not given)
Data returned: 40.2 µM

Data request: Another compound: C=CCC1=C2CCCCC2CCC1=O (stereo not given)
Data returned: > 100 µM

Data request: Another compound: "Cc1cc2c(cc1C)[n+](=O)c(C(=O)CC(=O)C(=O)Nc1ccccc1C)c(C)n2[O-]"
Data returned: > 100 µM

Data request: Another compound: "Cc1cc2c(=O)cc(-c3ccc(C(=O)O)cc3)oc2c(C(N)=O)c1C"
Data returned: > 100 µM

Data request: Another compound: "CC[C@H]1[C@@H](C)C=C[C@@H](C)N1S(=O)(=O)c1ccc(C)cc1"
Data returned: 30.4 µM

----------
test system: MDA-N; assay: NCI tumour cell line growth inhibition, 48 h
Where a SMILES comes first, the peptide text is derived from it. The star is where a group is joined. Boc = CC(C)(C)OC(=O)*
measurement.type: TGI

Take a look at these entries with their results.
{"columns": ["compound", "reported"],
 "data": [
  ["CCOC(=O)c1csc(NC(=O)CCN2CCOCC2)n1", "> 100 µM"],
  ["CSc1nc(SC)c2c(C)cn(Cc3ccccc3)c2n1", "> 100 µM"],
  ["CCOC(=O)Nc1nc(-c2ccccc2)c(C)s1", "> 100 µM"],
  ["CC(C)(C)OC(=O)CCC1NC(=O)[C@@H]2Cc3c([nH]c4ccccc34)C(c3ccccc3)N2C1=O (some centres undefined)", "45.7 µM"],
  ["CCCCCCCCOP(=O)(O)OP(=O)(O)OCC1OC(n2ccc(N)nc2=O)C(O)C1O (centres undefined)", "> 100 µM"]
]}

Data request: // query TGI value for entry "O=C(CC(O)(C(F)(F)Cl)C(F)(F)Cl)CC(O)(C(F)(F)Cl)C(F)(F)Cl"
Data returned: > 10 µM

Data request: Another compound: "O=C(c1ccccc1)c1ccc(N2C(=O)/C(=C/c3cccc([N+](=O)[O-])c3)N=C2c2ccccc2)c(N2C(=O)/C(=C/c3cccc([N+](=O)[O-])c3)N=C2c2ccccc2)c1"
Data returned: 86.6 µM

Data request: Another compound: CNC(=O)CNC(=O)C(NC(=O)CNC(=O)C1CCCN1C(=O)C(C)NC(=O)C(NC(=O)OC(C)(C)C)C(C)C)C(C)C (centres undefined) (Boc-VAPGVG-NHMe; configuration not given here)
Data returned: > 100 µM

Data request: Another compound: "CCc1nc2c(n1CC)C(=O)c1ccccc1C2=O"
Data returned: > 10 µM

Data request: Another compound: CCC1CN2CCc3cc(OC)c(OC)cc3C2CC1CC1c2cc(OC)c(OC)cc2CCN1C(=O)C(Cc1c[nH]c2ccccc12)NC(=O)OC(C)(C)C (centres undefined)
Data returned: 3.49 µM

Data request: Another compound: "CO[C@@H]1C[C@H]2[C@@H]3CC[C@H]([C@@H](C)COC(C)=O)[C@@]3(C)CC[C@@H]2[C@@]2(C)CC[C@H]3C[C@]312"
Data returned: 35.4 µM
